target system: HDAC8 (Homo sapiens, UniProt Q9BY41)
Construct: purchased BPS Bioscience
Sequence (Q9BY41 whole entry): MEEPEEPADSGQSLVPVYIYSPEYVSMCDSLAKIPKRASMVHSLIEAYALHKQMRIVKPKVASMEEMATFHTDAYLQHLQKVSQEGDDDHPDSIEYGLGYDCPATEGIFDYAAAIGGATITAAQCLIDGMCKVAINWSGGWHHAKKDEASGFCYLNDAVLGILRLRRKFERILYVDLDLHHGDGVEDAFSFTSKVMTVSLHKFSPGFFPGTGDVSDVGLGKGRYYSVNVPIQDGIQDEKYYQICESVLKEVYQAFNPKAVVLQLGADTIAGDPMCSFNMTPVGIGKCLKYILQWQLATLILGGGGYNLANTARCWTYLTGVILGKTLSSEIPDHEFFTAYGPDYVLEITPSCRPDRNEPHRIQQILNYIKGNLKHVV
experimental details: HDAC isoform inhibition, microfluidic lab-on-a-chip (Caliper) assay
Type: biochemical
stated conditions: HDAC isoform 8; 2 μM FAM-labeled acetylated peptide substrate, 60 min, room temperature

- compound: "Cc1ccc(S(=O)(=O)N2CC=C(C(=O)NO)CC2)cc1 [Compound 31A]"
  IC50 (µM): 0.494
- compound: "O=C(NO)C1=CCCC1 [Compound 21A, N-Hydroxycyclopent-1-Enecarboxamide]"
  IC50 (µM): 1.85
- compound: "O=C(NO)C1=CCCCC1 [Compound 19A, N-Hydroxycyclohex-1-Enecarboxamide]"
  IC50 (µM): 0.523
- compound: "CN1CCC=C(C(=O)NO)C1 [Compound 30A]"
  IC50 (µM): 2.63
- compound: "O=C(NO)C1=CCOCC1 [Compound 20A]"
  IC50 (µM): 1.38

====

Catalogue of IC50 values
target system: HDAC4 (Homo sapiens)
Sequence (P56524 whole entry, canonical isoform): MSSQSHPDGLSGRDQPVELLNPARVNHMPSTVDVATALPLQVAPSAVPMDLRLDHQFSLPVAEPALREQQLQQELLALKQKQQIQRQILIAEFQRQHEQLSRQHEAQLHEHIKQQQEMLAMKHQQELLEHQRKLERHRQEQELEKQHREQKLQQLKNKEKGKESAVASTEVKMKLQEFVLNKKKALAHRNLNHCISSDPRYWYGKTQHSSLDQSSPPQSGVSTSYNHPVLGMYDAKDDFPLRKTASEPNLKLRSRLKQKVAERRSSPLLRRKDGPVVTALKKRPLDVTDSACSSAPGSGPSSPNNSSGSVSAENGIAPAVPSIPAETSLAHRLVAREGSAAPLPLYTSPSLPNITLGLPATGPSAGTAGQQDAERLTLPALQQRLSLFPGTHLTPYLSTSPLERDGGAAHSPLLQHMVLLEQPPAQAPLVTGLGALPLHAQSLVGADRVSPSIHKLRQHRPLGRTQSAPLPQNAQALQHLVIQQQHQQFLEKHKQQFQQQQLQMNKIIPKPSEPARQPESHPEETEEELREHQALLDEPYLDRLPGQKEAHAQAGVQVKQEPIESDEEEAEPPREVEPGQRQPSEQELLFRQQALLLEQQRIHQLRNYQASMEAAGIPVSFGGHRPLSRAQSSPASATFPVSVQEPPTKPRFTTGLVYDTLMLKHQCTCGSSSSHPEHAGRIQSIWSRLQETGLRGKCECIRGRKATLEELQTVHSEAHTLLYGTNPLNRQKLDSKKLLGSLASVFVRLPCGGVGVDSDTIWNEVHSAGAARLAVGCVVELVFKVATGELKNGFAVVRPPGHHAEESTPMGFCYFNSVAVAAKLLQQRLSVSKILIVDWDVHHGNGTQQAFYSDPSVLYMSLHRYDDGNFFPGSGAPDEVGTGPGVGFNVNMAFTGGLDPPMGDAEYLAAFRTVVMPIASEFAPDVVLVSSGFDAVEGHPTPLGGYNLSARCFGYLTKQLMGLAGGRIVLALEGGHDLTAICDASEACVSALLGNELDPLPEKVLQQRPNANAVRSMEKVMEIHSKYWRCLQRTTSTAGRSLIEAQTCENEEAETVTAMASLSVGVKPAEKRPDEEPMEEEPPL
experimental details: HDAC isoform inhibition, microfluidic lab-on-a-chip (Caliper) assay
endpoint: IC50 (µM)

- compound: "COc1ccc(C(=O)N2CCC=C(C(=O)NO)C2)cc1 [Compound 12A]"
  unit abbrev: "µM"
  value qualifier: ">"
  numeric value: 33
- compound: "O=C(NO)C1=C[C@@H](O)[C@@H](O)[C@H](O)C1 [Compound 22A]"
  unit abbrev: "µM"
  value qualifier: ">"
  numeric value: 33
- compound: "O=C(NO)C1=CCOCC1 [Compound 20A]"
  unit abbrev: "µM"
  value qualifier: ">"
  numeric value: 33
- compound: "Cc1ccc(S(=O)(=O)N2CC=C(C(=O)NO)CC2)cc1 [Compound 31A]"
  unit abbrev: "µM"
  value qualifier: "="
  numeric value: 14.8
- compound: "CC1=C(C(=O)NO)Cc2ccccc21 [Compound 29A]"
  unit abbrev: "µM"
  value qualifier: "="
  numeric value: 16
- compound: "COc1ccc(CNC2C=C(C(=O)NO)CCC2)cc1 (centres unmarked) [Compound 7A]"
  unit abbrev: "µM"
  value qualifier: ">"
  numeric value: 33
- compound: "O=C(NO)C1=CC(Sc2ccccc2)CCC1 (centres unmarked) [Compound 10A]"
  unit abbrev: "µM"
  value qualifier: "="
  numeric value: 7.93
- compound: "O=C(NO)C1=CCCCC1 [Compound 19A, N-Hydroxycyclohex-1-Enecarboxamide]"
  unit abbrev: "µM"
  value qualifier: "="
  numeric value: 10.1
- compound: "CN1CCC=C(C(=O)NO)C1 [Compound 30A]"
  unit abbrev: "µM"
  value qualifier: ">"
  numeric value: 33
- compound: "O=C(NO)C1=Cc2ccccc2CC1 [Compound 32A]"
  unit abbrev: "µM"
  value qualifier: "="
  numeric value: 4.65
- compound: "O=C(NO)C1=CCCC1 [Compound 21A, N-Hydroxycyclopent-1-Enecarboxamide]"
  unit abbrev: "µM"
  value qualifier: "="
  numeric value: 29.7

====

Entries and their IC50 values follow.
target system: HDAC9 (Homo sapiens, UniProt Q9UKV0)
Construct: purchased BPS Bioscience
Sequence (Q9UKV0 whole entry): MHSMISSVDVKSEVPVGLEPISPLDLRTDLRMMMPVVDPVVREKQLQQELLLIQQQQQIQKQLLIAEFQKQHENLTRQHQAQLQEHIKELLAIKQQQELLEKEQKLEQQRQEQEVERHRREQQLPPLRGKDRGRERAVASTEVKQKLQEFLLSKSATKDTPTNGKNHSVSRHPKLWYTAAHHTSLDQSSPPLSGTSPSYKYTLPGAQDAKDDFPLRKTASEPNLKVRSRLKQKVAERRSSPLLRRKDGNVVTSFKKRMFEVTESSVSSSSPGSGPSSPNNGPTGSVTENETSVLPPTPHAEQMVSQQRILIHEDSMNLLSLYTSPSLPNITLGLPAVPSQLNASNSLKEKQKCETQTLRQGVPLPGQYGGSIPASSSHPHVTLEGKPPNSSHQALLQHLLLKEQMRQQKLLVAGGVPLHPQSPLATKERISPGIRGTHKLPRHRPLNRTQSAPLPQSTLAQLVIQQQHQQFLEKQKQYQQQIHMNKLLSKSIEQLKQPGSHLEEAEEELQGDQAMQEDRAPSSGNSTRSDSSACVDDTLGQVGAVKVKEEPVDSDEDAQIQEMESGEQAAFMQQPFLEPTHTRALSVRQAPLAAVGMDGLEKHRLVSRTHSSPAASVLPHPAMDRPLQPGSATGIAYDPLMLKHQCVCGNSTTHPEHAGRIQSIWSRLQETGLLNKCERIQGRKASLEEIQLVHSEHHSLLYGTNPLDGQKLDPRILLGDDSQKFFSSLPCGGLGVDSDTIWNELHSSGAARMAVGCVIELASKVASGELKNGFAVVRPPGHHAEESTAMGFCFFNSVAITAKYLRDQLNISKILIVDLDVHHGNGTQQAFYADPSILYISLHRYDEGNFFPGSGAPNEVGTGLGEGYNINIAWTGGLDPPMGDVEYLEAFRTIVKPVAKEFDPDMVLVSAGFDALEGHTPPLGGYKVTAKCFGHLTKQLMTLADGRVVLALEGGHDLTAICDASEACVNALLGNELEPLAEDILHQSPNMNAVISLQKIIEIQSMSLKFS
experimental details: HDAC isoform inhibition, microfluidic lab-on-a-chip (Caliper) assay
Format: biochemical
stated conditions: HDAC isoform 9; 2 μM FAM-labeled acetylated peptide substrate, 60 min, room temperature

- compound: "O=C(NO)C1=CC(Sc2ccccc2)CCC1 (centres unmarked) [Compound 10A]"
  IC50: "16 µM"
- compound: "O=C(NO)C1=CCCC1 [Compound 21A, N-Hydroxycyclopent-1-Enecarboxamide]"
  IC50: "> 33 µM"
- compound: "O=C(NO)C1=CCOCC1 [Compound 20A]"
  IC50: "> 33 µM"
- compound: "Cc1ccc(S(=O)(=O)N2CC=C(C(=O)NO)CC2)cc1 [Compound 31A]"
  IC50: "13 µM"
- compound: "CN1CCC=C(C(=O)NO)C1 [Compound 30A]"
  IC50: "> 33 µM"
- compound: "COc1ccc(C(=O)N2CCC=C(C(=O)NO)C2)cc1 [Compound 12A]"
  IC50: "> 33 µM"
- compound: "O=C(NO)C1=Cc2ccccc2CC1 [Compound 32A]"
  IC50: "4.08 µM"
- compound: "O=C(NO)C1=C[C@@H](O)[C@@H](O)[C@H](O)C1 [Compound 22A]"
  IC50: "> 33 µM"
- compound: "O=C(NO)C1=CCCCC1 [Compound 19A, N-Hydroxycyclohex-1-Enecarboxamide]"
  IC50: "11.7 µM"
- compound: "COc1ccc(CNC2C=C(C(=O)NO)CCC2)cc1 (centres unmarked)"
  IC50: "> 33 µM"
- compound: "CC1=C(C(=O)NO)Cc2ccccc21 [Compound 29A]"
  IC50: "11.2 µM"

====

target system: HDAC1 (Homo sapiens, UniProt Q13547)
Construct: purchased BPS Bioscience
Sequence (Q13547 whole entry): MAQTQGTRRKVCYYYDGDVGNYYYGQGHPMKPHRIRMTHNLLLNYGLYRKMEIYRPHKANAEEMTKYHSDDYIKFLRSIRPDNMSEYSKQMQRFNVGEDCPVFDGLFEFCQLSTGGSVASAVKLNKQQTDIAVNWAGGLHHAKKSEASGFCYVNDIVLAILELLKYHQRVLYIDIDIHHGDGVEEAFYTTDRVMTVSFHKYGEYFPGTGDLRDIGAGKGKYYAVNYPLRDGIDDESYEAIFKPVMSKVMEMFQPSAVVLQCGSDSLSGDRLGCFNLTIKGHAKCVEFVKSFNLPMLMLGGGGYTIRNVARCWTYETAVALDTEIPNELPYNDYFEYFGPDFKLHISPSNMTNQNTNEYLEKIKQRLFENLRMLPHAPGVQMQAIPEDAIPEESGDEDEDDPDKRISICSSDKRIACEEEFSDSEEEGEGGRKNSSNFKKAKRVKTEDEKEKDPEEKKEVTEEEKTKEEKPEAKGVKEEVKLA
experimental details: HDAC isoform inhibition, microfluidic lab-on-a-chip (Caliper) assay
Format: biochemical
stated conditions: HDAC isoform 1; 2 μM FAM-labeled acetylated peptide substrate, 60 min, room temperature
Measured IC50 of individual entries

- compound: "O=C(NO)C1=Cc2ccccc2CC1 [Compound 32A]"
  unit abbrev: "µM"
  value qualifier: "="
  IC50: 1.86
- compound: "O=C(NO)C1=CCCCC1 [Compound 19A, N-Hydroxycyclohex-1-Enecarboxamide]"
  unit abbrev: "µM"
  value qualifier: "="
  IC50: 0.423
- compound: "Cc1ccc(S(=O)(=O)N2CC=C(C(=O)NO)CC2)cc1 [Compound 31A]"
  unit abbrev: "µM"
  value qualifier: "="
  IC50: 0.084
- compound: "CC1=C(C(=O)NO)Cc2ccccc21 [Compound 29A]"
  unit abbrev: "µM"
  value qualifier: "="
  IC50: 0.275
- compound: "COc1ccc(C(=O)N2CCC=C(C(=O)NO)C2)cc1 [Compound 12A]"
  unit abbrev: "µM"
  value qualifier: ">"
  IC50: 33
- compound: "O=C(NO)C1=CCCC1 [Compound 21A, N-Hydroxycyclopent-1-Enecarboxamide]"
  unit abbrev: "µM"
  value qualifier: "="
  IC50: 0.727
- compound: "COc1ccc(CNC2C=C(C(=O)NO)CCC2)cc1 (centres unmarked)"
  unit abbrev: "µM"
  value qualifier: ">"
  IC50: 33
- compound: "O=C(NO)C1=CCOCC1 [Compound 20A]"
  unit abbrev: "µM"
  value qualifier: "="
  IC50: 1.08
- compound: "O=C(NO)C1=CC(Sc2ccccc2)CCC1 (centres unmarked) [Compound 10A]"
  unit abbrev: "µM"
  value qualifier: "="
  IC50: 2.1
- compound: "CN1CCC=C(C(=O)NO)C1 [Compound 30A]"
  unit abbrev: "µM"
  value qualifier: ">"
  IC50: 33
- compound: "O=C(NO)C1=C[C@@H](O)[C@@H](O)[C@H](O)C1 [Compound 22A]"
  unit abbrev: "µM"
  value qualifier: ">"
  IC50: 33

====

target system: HDAC3 (Homo sapiens)
Construct: purchased BPS Bioscience
Sequence (O15379 whole entry): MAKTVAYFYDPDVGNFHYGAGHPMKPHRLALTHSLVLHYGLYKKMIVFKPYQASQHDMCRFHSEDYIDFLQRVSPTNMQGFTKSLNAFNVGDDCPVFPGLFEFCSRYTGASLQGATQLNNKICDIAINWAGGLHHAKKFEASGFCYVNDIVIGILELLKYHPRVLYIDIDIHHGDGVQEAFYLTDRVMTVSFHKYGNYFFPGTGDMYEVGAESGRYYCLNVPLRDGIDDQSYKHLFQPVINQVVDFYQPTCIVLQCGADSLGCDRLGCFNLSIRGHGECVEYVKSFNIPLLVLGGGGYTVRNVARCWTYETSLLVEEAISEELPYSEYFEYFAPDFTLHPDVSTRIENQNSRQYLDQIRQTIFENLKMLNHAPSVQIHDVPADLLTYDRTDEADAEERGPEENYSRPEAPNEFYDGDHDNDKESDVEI
Sequence (Q9Y618 395-489 partner limits assumed): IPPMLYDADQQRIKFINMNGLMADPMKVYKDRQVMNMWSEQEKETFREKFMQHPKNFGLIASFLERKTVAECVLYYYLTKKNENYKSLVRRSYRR
experimental details: HDAC isoform inhibition, microfluidic lab-on-a-chip (Caliper) assay
Assay type: biochemical
stated conditions: HDAC isoform 3; 2 μM FAM-labeled acetylated peptide substrate, 60 min, room temperature
The entries below are paired with their reported IC50.

- compound: "O=C(NO)C1=CCOCC1 [Compound 20A]"
  value qualifier: "="
  IC50 (µM): 1.4
- compound: "O=C(NO)C1=CCCCC1 [Compound 19A, N-Hydroxycyclohex-1-Enecarboxamide]"
  value qualifier: "="
  IC50 (µM): 0.493
- compound: "COc1ccc(CNC2C=C(C(=O)NO)CCC2)cc1 (centres unmarked)"
  value qualifier: ">"
  IC50 (µM): 33
- compound: "O=C(NO)C1=CCCC1 [Compound 21A, N-Hydroxycyclopent-1-Enecarboxamide]"
  value qualifier: "="
  IC50 (µM): 0.734
- compound: "O=C(NO)C1=Cc2ccccc2CC1 [Compound 32A]"
  value qualifier: "="
  IC50 (µM): 2.32

====

target system: HDAC5 (Homo sapiens, UniProt Q9UQL6)
Construct: purchased BPS Bioscience
Sequence (Q9UQL6 whole entry): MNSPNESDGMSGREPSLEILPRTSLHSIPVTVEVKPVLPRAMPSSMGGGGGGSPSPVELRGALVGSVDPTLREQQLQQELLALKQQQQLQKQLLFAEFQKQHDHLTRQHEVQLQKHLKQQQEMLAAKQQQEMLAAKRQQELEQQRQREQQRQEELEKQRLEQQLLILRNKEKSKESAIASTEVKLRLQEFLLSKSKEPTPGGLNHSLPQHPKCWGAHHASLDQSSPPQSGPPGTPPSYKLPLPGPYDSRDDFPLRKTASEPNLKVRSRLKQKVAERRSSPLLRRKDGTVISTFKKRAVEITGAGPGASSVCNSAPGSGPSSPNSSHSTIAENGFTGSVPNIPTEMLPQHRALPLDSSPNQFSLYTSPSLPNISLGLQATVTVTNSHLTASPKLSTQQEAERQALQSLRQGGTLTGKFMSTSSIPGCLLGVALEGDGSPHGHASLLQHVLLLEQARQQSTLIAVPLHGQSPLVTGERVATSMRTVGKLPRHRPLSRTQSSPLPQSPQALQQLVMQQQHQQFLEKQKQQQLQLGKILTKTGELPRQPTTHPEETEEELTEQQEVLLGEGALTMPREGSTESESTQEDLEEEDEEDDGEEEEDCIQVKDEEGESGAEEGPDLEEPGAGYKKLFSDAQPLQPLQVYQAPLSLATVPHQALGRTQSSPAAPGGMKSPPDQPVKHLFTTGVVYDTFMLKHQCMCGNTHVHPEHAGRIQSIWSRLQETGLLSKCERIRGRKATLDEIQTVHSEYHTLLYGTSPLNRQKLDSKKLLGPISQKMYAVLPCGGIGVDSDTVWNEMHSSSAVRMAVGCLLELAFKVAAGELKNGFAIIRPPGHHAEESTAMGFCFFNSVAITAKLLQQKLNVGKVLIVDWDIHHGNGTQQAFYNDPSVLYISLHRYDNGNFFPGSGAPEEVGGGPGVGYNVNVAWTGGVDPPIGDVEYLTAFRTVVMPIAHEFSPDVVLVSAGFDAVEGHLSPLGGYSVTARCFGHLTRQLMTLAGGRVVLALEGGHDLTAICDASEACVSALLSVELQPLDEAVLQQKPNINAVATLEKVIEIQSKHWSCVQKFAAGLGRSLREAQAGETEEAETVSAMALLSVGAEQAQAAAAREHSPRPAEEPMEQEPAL
experimental details: HDAC isoform inhibition, microfluidic lab-on-a-chip (Caliper) assay
Assay type: biochemical
stated conditions: HDAC isoform 5; 2 μM FAM-labeled acetylated peptide substrate, 60 min, room temperature
endpoint: IC50

- compound: "O=C(NO)C1=CCCC1 [Compound 21A, N-Hydroxycyclopent-1-Enecarboxamide]"
  endpoint: "IC50"
  result: "21.1 µM"
- compound: "CC1=C(C(=O)NO)Cc2ccccc21 [Compound 29A]"
  endpoint: "IC50"
  result: "23.6 µM"
- compound: "O=C(NO)C1=C[C@@H](O)[C@@H](O)[C@H](O)C1 [Compound 22A]"
  endpoint: "IC50"
  result: "> 33 µM"
- compound: "COc1ccc(C(=O)N2CCC=C(C(=O)NO)C2)cc1 [Compound 12A]"
  endpoint: "IC50"
  result: "> 33 µM"
- compound: "COc1ccc(CNC2C=C(C(=O)NO)CCC2)cc1 (centres unmarked)"
  endpoint: "IC50"
  result: "> 33 µM"

Reference for the values: patent US10793538B2
